experiment: self-splicing fitness, log relative to wild type (ln ratio); higher = more splicing; Tetrahymena group I intron in knt gene, E. coli kanamycin selection, DiMSum; sequences stand for … in CUCUCU…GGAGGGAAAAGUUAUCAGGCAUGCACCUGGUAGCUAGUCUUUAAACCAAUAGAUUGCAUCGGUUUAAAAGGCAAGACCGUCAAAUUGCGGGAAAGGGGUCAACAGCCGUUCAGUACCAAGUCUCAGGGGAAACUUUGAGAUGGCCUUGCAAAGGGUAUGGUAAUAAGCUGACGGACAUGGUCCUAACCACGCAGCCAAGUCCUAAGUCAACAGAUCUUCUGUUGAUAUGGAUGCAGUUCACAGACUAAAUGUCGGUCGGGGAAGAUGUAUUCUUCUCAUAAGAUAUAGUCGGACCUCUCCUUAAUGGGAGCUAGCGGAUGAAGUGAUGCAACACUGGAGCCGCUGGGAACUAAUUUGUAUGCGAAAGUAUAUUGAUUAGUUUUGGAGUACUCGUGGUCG; details: 30 °C;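 further: selection with 25 µg/mL kanamycin versus none on LB agar overnight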
measure: self-splicing fitness (ln)
// no unit, no text: just the number

Study these solved cases before continuing.
> print(dat)
          sequence.data                     measure  measured.value
1  CUGAAGCAAUAUUACGAGUG  self-splicing fitness (ln)          0.0379
2  AAAUAGCAAUAUUACGCAUU  self-splicing fitness (ln)           -2.89
3  ACAGAGCAAUAUUACGAUCU  self-splicing fitness (ln)           -1.68
4  AACCAGCAAUAUUACGCGUG  self-splicing fitness (ln)           -1.09
5  GUAAAGCAAUAUUACGAUCC  self-splicing fitness (ln)         -0.0218

[ask] Need self-splicing fitness (ln) of UACUAGCAAUAUUACGCAAU , thanks.
[reply] -3.82

[ask] Need self-splicing fitness (ln) of GGAUAGCAAUAUUACGUCUA , thanks.
[reply] -0.367

[ask] Need self-splicing fitness (ln) of CGUUAGCAAUAUUACGAUGA , thanks.
[reply] -1.79

[ask] Need self-splicing fitness (ln) of UAAAAGCAAUAUUACGAGAU , thanks.
[reply] -3.14

[ask] Need self-splicing fitness (ln) of UGCAAGCAAUAUUACGGGAU , thanks.
[reply] -3.04
